Quick reference: growth inhibition of the listed items.
ASSAY_REMARKS: NCI Yeast Anticancer Drug Screen. Data for the rad14 strain (AID 159);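 also: 0% = growth of vehicle-treated control cultures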
CONDITION_NOTES: S. cerevisiae rad14 strain growth inhibition; at 33.0 µM; active compounds read high
About 79,000 compounds went through this panel and 15% of them were active in at least one assay; those are over-represented in the sample as a whole.
Form entry: value (%) — number only.

{"MOLECULE": "CC(C)C1=CCC2C(=C1)CCC1C(C)(C(=O)O)CCCC21C (stereo not given) (tested in a mixture with another compound)", "RESULT_TYPE": "growth inhibition", "UNITS_OF_MEASURE": "%", "REPORTED_MEASUREMENT": 34}
{"MOLECULE": "Cc1ccc(-c2ccc(Nc3c4ccccc4nc4ccccc34)cc2)cn1", "RESULT_TYPE": "growth inhibition", "UNITS_OF_MEASURE": "%", "REPORTED_MEASUREMENT": 75}
{"MOLECULE": "CN(C)CCn1c2c3ccccc3ccc2c2oc(=O)c3ccccc3c21", "RESULT_TYPE": "growth inhibition", "UNITS_OF_MEASURE": "%", "REPORTED_MEASUREMENT": 95}
{"MOLECULE": "Cn1c(=O)c2ccccc2c2ccccc21", "RESULT_TYPE": "growth inhibition", "UNITS_OF_MEASURE": "%", "REPORTED_MEASUREMENT": 39}
{"MOLECULE": "CC(C(=O)N1C(=O)N(C(=O)[C@H](C)C(O)c2ccccc2)[C@H](c2ccccc2)[C@H]1c1ccccc1)[C@@H](O)c1ccccc1 (stereo not given in full)", "RESULT_TYPE": "growth inhibition", "UNITS_OF_MEASURE": "%", "REPORTED_MEASUREMENT": 15}
{"MOLECULE": "C[Si](C)(C)CNC(=O)OCc1ccccc1", "RESULT_TYPE": "growth inhibition", "UNITS_OF_MEASURE": "%", "REPORTED_MEASUREMENT": 0}

# growth inhibition (molecule: O=C(/C=C\c1ccc(Cl)cc1Cl)c1cccs1 ) is 9

# growth inhibition (molecule: CCOC(=O)[C@H]1Nc2ccccc2C2c3ccccc3CC21 (stereo not given in full) ) is 22

# growth inhibition (molecule: FC(F)(F)c1nc2nc(Cl)c(Cl)nc2n1CCCN1CCOCC1 ) is 44

# growth inhibition (molecule: Cc1cc2c(cc1C(=O)CCC(=O)O)CC1(C2)Cc2cc(C)c(C(=O)CCC(=O)O)cc2C1 ) is 22

# growth inhibition (molecule: CCN(CC)CC(O)c1ccc2ccc3ccccc3c2c1 (stereo not given) ) is 28

# growth inhibition (molecule: CCN(CC)CCC(=O)c1ccc(Oc2ccc(F)cc2)cc1 ) is 79

# growth inhibition (molecule: CCOC(=O)C1=C(C(=O)c2ccccc2)C(c2ccccc2[N+](=O)[O-])C(C(=O)c2ccccc2)=C(C(=O)OCC)N1 ) is 9

# growth inhibition (molecule: OC1CSCCCSCCSCCCSC1 ) is -36

# growth inhibition (molecule: N#CSc1ccc(S(N)(=O)=O)cc1 ) is -30

# growth inhibition (molecule: O=C(c1ccc(Cl)cc1Cl)C(Cl)Cl ) is 53

# growth inhibition (molecule: O=[N+]([O-])/C=C/c1ccc2ccccc2c1 ) is 99

# growth inhibition (molecule: CCCCN(CCCC)CCSc1ccc(Cl)cc1 ) is 12

# growth inhibition (molecule: c1ccc2c(c1)sc1cc3ccncc3cc12 ) is 36

# growth inhibition (molecule: O=[N+]([O-])c1cccc2nc3ccccc3c(NCCCN3CCOCC3)c12 ) is 98

# growth inhibition (molecule: N#Cc1ccc(C2NN=CC23C(=O)c2ccccc2OC3c2ccccc2)cc1 (stereo not given) ) is 3

# growth inhibition (molecule: Cc1ccc(CCC2=CCCc3c2ccc2ccccc32)cc1 ) is 6

# growth inhibition (molecule: C/C(=N\O)C1CC2C=C(C#N)C1N(Cc1ccccc1)C2 (stereo not given) ) is 1

# growth inhibition (molecule: O=C1CSc2cc([N+](=O)[O-])ccc2N1 ) is -10

# growth inhibition (molecule: CCOP(=O)(OCC)C(Cc1ccccc1)N=C(c1ccccc1)c1ccccc1 (stereo not given) ) is 73

# growth inhibition (molecule: CC(/C=C/c1ccc(Cl)cc1)=N\NC(=S)NCC(C)C ) is 5

# growth inhibition (molecule: CC(=O)OC1CCC2(C)C(=CCC3C4CCC5(OC6CC(C)CN(C(C)=O)C6C5C)C(C)=C4C(=O)C32)C1 (stereo not given) ) is 96

# growth inhibition (molecule: COc1ccc(/C=C2\SC(=S)N(/C=C/c3nc4ccccc4[nH]c3=O)C2=O)cc1OC ) is 64

###

ASSAY_REMARKS: NCI Yeast Anticancer Drug Screen. Data for the rad52 strain (AID 147);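 also: 0% = growth of vehicle-treated control cultures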
CONDITION_NOTES: S. cerevisiae rad52 mutant growth inhibition; at 3.7 µM
Experimental: Growth inhibition of yeast strains with defined genetic alterations is measured as a screen for potential anti-cancer activity. Selected strains with alterations in DNA damage repair or cell cycle control were exposed to compounds and growth inhibition was measured relative to vehicle treated controls. The strain used in this assay is rad52
This is part of a sample that, as a whole, favours compounds with a hit. Of some 79,000 tested, about 15% had one in any assay. The source made the active and inactive calls. Cut-off read from the data, not from the text of the source: active = growth inhibition above about 70%; inactive = the rest.
Please state which outcome applies, choosing from 1 = active, -1 = inactive

Answered cases to consult:
{"COMPOUND": "Nc1ccn(C2OC(CO)C3[O][Sn]([c]4ccccc4)([c]4ccccc4)[O]C32)c(=O)n1 (stereo not drawn)", "GROUP": -1}
{"COMPOUND": "COC1C=COC2(C)Oc3c(C)c(O)c4c(c3C2=O)/C(=N/C2CCC(O)OC2C)C=C(NC(=O)/C(C)=C\\C(=O)C2CC2C(O)C(C)C(O)C(C)C(OC(C)=O)C1C)C4=O (stereo not drawn)", "GROUP": -1}
{"COMPOUND": "CCN(CC)C(C)(C)C(=O)/C=C/c1ccccc1", "GROUP": -1}
{"COMPOUND": "S=C(Nc1ccc(Cl)c(Cl)c1)SCc1ccc2c(c1)OCO2", "GROUP": -1}
{"COMPOUND": "O=C(N=Nc1ccccc1Cl)NNc1ccccc1Cl", "GROUP": -1}

Qu. Test call, this compound: CCCCCCCCCCCC1=C(O)C(=O)C=C(O)C1=O
Ans. -1

Qu. Test call, this compound: CN(C)c1ccc(C(C#N)=C(C#N)C#N)cc1
Ans. -1

Qu. Test call, this compound: O=C1OC(CCl)CN1/N=C/c1ccc([N+](=O)[O-])o1 (stereo not drawn)
Ans. -1

###

ASSAY_REMARKS: NCI Yeast Anticancer Drug Screen. Data for the sgs1 strain (AID 173);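 also: 0% = growth of vehicle-only control cultures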
CONDITION_NOTES: S. cerevisiae sgs1 mutant, at 3.7 µM
This is part of a sample that, as a whole, favours compounds with a hit. Of some 79,000 tested, about 15% had one in any assay. Active and inactive are the calls of the source. Rule as the data show it: active = growth inhibition above about 70%; inactive = the rest.
Please state which outcome applies, choosing from active, inactive

{"COMPOUND": "CC(=O)OCCOCNC(=S)N/N=C(\\C)c1cnccn1", "GROUP": "inactive"}
{"COMPOUND": "Cc1cccc2c(C(O)CBr)cc(-c3ccc(Cl)cc3)nc12 (stereo unspecified)", "GROUP": "inactive"}
{"COMPOUND": "C[S+](C)C1(c2ccccc2)C(=O)c2ccccc2C1=O", "GROUP": "inactive"}
{"COMPOUND": "O=[N+]([O-])/C=C/c1ccc2ccccc2c1", "GROUP": "active"}
{"COMPOUND": "CCOC(=O)C(NC(=O)c1ccccc1)(N1CCN(c2cc3c(cc2F)c(=O)c(C(=O)O)cn3C2CC2)CC1)C(F)(F)F (stereo unspecified)", "GROUP": "inactive"}
{"COMPOUND": "COc1ccc(NC(=S)N/N=C(\\c2ccccc2)c2ccccn2)cc1", "GROUP": "inactive"}

Qu. Test call, this compound: CCN(CC)C(=S)N/N=C(/C)c1cccc(/C(C)=N\NC(=S)N(CC)CC)n1
Ans. inactive

Qu. Test call, this compound: O=C1C=CC(=Nc2ccc3c(c2)Cc2cc(NC(=O)C(F)(F)F)ccc2-3)O1
Ans. inactive

Qu. Test call, this compound: Cc1c(C2=C(Br)C(=O)N(C)C2=O)c(=O)n(C)c(=O)n1C
Ans. inactive

Qu. Test call, this compound: O=C(Nc1ccccc1)OCCc1ccc(Cl)c(Cl)c1
Ans. inactive

Qu. Test call, this compound: Cn1c(=O)c(-c2ccccc2)c(N=[N+]=[N-])c2ccccc21
Ans. inactive

###

ASSAY_REMARKS: NCI Yeast Anticancer Drug Screen. Data for the mlh1 strain (AID 171);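 also: 0% = growth of vehicle-treated control cultures of the same strain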
CONDITION_NOTES: S. cerevisiae mlh1 strain growth inhibition; at 100.0 µM; active compounds read high
About 79,000 compounds went through this panel and 15% of them were active in at least one assay; those are over-represented in the sample as a whole.
Definition: the class of an entry is the range in low bin (below 40%), mid bin (40% to below 90%), high bin (90% or more) that contains its growth inhibition.

{"COMPOUND": "CC(C)(Br)C(=O)/C=C/c1ccc(Cl)c(Cl)c1", "GROUP": "low bin"}
{"COMPOUND": "CC(/C=C/c1ccc(Cl)cc1)=N\\NC(=S)NCC(C)C", "GROUP": "low bin"}
{"COMPOUND": "COc1cc(/C=C2\\CCc3ccccc3C2=O)cc(OC)c1OC", "GROUP": "mid bin"}
{"COMPOUND": "Cn1c(=O)c2ccccc2c2ccccc21", "GROUP": "mid bin"}
{"COMPOUND": "COc1cc2c3c(cccc3c1)C(=O)N(CCN(C)C)C2=O", "GROUP": "low bin"}
{"COMPOUND": "O=[N+]([O-])C(=C(Sc1ccccc1)Sc1ccccc1)C(Cl)=C(Cl)Cl", "GROUP": "mid bin"}

Qu. // return the class label for C=CCC1=C(C)C(OC(=O)/C=C/c2ccccc2)CC1=O (stereo unspecified)
Ans. mid bin

Qu. // return the class label for O=C1NC(=O)C2C3C=CC(C3)C12 (stereo unspecified)
Ans. high bin

Qu. // return the class label for COc1cc2c(c(OC)c1OC)-c1c(cc3c(c1OC)OCO3)CC(C)C(C)(O)C2OC(=O)c1ccccc1 (stereo unspecified)
Ans. mid bin

Qu. // return the class label for [O-][n+]1c2ccc(O)cc2nc2ccc(Br)cc21
Ans. mid bin
